Reference source for all entries: paper PMC4072508

z-score 2.2 for assorted substances
target: Mcl-1 (Homo sapiens, UniProt Q07820); construct: myc-Mcl-1 SPOT array & FP; made in house; assay: LUMIER full-length protein interaction; assay type: binding; settings: LUMIER results for Mcl-1; Z-score relative to Gaussian fit of the data; experiment 2, duplicate 2
Sequence (Q07820 with tags, fused parts or gaps): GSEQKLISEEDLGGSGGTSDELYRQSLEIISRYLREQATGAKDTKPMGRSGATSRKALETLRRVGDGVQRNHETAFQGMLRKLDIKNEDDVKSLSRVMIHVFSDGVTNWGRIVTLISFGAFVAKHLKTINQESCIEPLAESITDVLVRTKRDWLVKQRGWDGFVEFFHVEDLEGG
Experimental endpoint: z-score 2.2

CTSL2 (SQGKHGFTMAMNAFGDMTNEEFRQMM); -0.562
DZIP3 (NGGLLEFHKSLQEIGDKNDHWFDIDP); 0.2898
PPAT (RLRQLGVAKKFGVLSDNFKGKRIVLV); -0.9152
FBXL3 (CHGLRELALNYHLLSDELLLALSSEK); -0.175
IPO5 (SEIMHSFAKCIEVMGDGCLNNEHFEE); 1.866
ZNF295 (ERLKGQLCDVLLIVGDQKFRAHKNVL); 0.1208
BCL2L11 (MRPEIWIAQELRRIGDEFNAYYARRV); 12.4336
WRAP53 (RKDAELLCWDLRQSGYPLWSLGREVT); 1.084
TMEM214 (SFLSAHCASHLAWFGDSLTSLSQRLQ); -0.9391
CYBB (APEEDFFSIHIRIVGDWTEGLFNACG); -1.447
CASP8 (PFKKMDFSRNLYDIGEQLDSEDLASL); -0.03009
RNF160 (WLKGDILGEKLVNLADCLCNEDLESR); -0.3716
DPF3 (SCMATVIHNPLKALGDQFYKEAIEHC); -0.07055
RBL1 (WTLFVYTKGNFRMIGDDLVNSYHLLL); 0.6936
FUT8 (KKLKNLEGNELQRHADEFLLDLGHHE); -0.7985
PRKD3 (IQENVDISTVYQIFADEVLGSGQFGI); 3.546
DHX30 (PVESSWIAPELRLQSDDILPLGKDSG); 0.3173
DSN1 (RAKASSLSEELKHFADGLETDGTLQK); 0.2829
STK11IP (DSLLWKLAGLLRESGDVVLSGCSTLS); -1.0129
HEXDC (VLELHPGAQRLHIGCDEVYYLGEGEA); -1.44
COL2A1 (VLLTLLVAAVLRCQGQDVQEAGSCVQ); 2.677
WDR60 (GGRVKLVHSALIQLGDSLSHKGNEFW); 0.563
PRDX4 (LDFTFVCPTEIIAFGDRLEEFRSINT); -0.3116
SMPD2 (PYLSKHRADRMRRLGDFLNQESFDLA); -0.9514
SIPA1 (TAGLRPGARLLRVCGQTLPSLRPEAA); -0.3116
PCNXL2 (LLDFFMVSILFSKLGDLLHKLQFVLT); -0.3857

====

Kd for assorted substances
target: Mcl-1 (Homo sapiens); construct: myc-Mcl-1 SPOT array & FP; made in house; test: Fluorescence polarization direct binding; details: Binder class, Mcl-1, benchmark classification of peptides newly characterized in this study
No end group written: not given here.
Experimental endpoint: Kd

RVEQMAIQIKEVGDRVNYIKRSL-NH2 [TRPM7]; > 10 µM
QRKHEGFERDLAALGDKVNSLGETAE-NH2 [SPTAN1]; > 10 µM
FIQSLAAMLKQYADKLEFMHILT-NH2 [CASP3]; 1 to 10 µM
IIHKLAMQLRHIGDNIDHRMVRE-NH2 [PXT1]; < 1 µM
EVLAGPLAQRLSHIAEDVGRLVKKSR-NH2 [ARHGAP4]; < 1 µM
GSGAWGLLLRRVGDDVLVHLLAR-NH2 [TERT]; < 1 µM
